// data source = patent US11485707B2

# recorded.conditions: male Chinchilla rabbits, topical to right eye once daily for 3 days, 30 μL/eye/dose; dosing on day 3 at 24 h; vs control
Counter-ions that a name gives are not always drawn.
endpoint.label: ΔIOP % (%)
Numbers only, in %.

These recorded examples may help you get a feel for the data.
>>> measured_result("[2H]c1nccc2cc(NC(=O)[C@@]([2H])(c3ccc(C([2H])([2H])OC(=O)c4ccc(C)cc4C)cc3)C([2H])([2H])N)ccc12 [Example 7, dihydrochloride]")
0.48
>>> measured_result("[2H]C([2H])([2H])c1ccc(C(=O)OCc2ccc([C@@H](CN)C(=O)Nc3ccc4cnccc4c3)cc2)c(C([2H])([2H])[2H])c1 [Example 14, dihydrochloride]")
"−5.81"
>>> measured_result("[2H]c1nccc2cc(NC(=O)[C@H](CN)c3ccc(C([2H])([2H])OC(=O)c4ccc(C([2H])([2H])[2H])cc4C([2H])([2H])[2H])cc3)ccc12 [Example 20, dihydrochloride]")
"−4.89"

Can you give me ΔIOP % for all of these, one by one?
1. [2H]C([2H])([2H])c1ccc(C(=O)OC([2H])([2H])c2ccc([C@@H](CN)C(=O)Nc3ccc4cnccc4c3)cc2)c(C([2H])([2H])[2H])c1 [Example 15, dihydrochloride]
2. [2H]C([2H])([2H])c1ccc(C(=O)OC([2H])([2H])c2ccc([C@@]([2H])(CN)C(=O)Nc3ccc4cnccc4c3)cc2)c(C([2H])([2H])[2H])c1 [Example 6, dihydrochloride]

OUT:
["−4.25", "−16.08"]
